target: hFZD7 CRD-Fc (human, UniProt O75084 33-185); test: spot phage ELISA
MEASURED METRIC: S/W
Enter the number alone.

Guide cases for S/W, answers given:
# BINDER, VALUE REPORTED
measured = [
    ("AASDDLAAWCHVMY [SEQ ID NO 49]", 3),
    ("APADDLESWCHVMY [SEQ ID NO 96]", 2.9),
    ("APSDDLEFWCHVMY [SEQ ID NO 44]", 3.1),
]

Documented S/W of LPAADLAAWCHVMY [SEQ ID NO 82] : 3

S/W recorded for this binder, AAADDLEFWCHVMY [SEQ ID NO 48] , is 3.1

For record VAADALEFWCHVMY [SEQ ID NO 55] the listed S/W is 3

Measured S/W of LPADDLAAWCHVMY [SEQ ID NO 84] : 3.1

// field: S/W; key: APADDLEFWCHAMY [SEQ ID NO 89] ; value = 1.9

Attribution: patent US20190359653A1
